# Tested on: Avena sterilis
# experiment.notes: Herbicidal activity against Avena sterilis accession P18 assessed as weed survival at 16 times field recommended herbicide dose
# Assay type: functional
measured.property: Survival (%)
Give just the numeric value; % need not be written.

Some compounds with recorded Survival:
{"compound": "CCc1cc(C)cc(CC)c1-c1c(OC(=O)C(C)(C)C)n2n(c1=O)CCOCC2 [PINOXADEN]", "numeric.readout": 0}
{"compound": "C#CCOC(=O)[C@@H](C)Oc1ccc(Oc2ncc(Cl)cc2F)cc1 [CLODINAFOP PROPARGYL]", "numeric.readout": 40}
{"compound": "CCO/N=C(\\CC)C1=C(O)CC(c2c(C)cc(C)cc2C)CC1=O (stereo unspecified) [TRALKOXYDIM]", "numeric.readout": 0}
{"compound": "CCOC(=O)[C@@H](C)Oc1ccc(Oc2nc3ccc(Cl)cc3o2)cc1 [FENOXAPROP-P-ETHYL]", "numeric.readout": 73}
{"compound": "COCc1cnc(C2=NC(C)(C(C)C)C(=O)N2)c(C(=O)O)c1 (stereo unspecified) [IMAZAMOX]", "numeric.readout": 0}

Exercise: Fill in: Survival of COC(=O)C(C)Oc1ccc(Oc2ccc(Cl)cc2Cl)cc1 (stereo unspecified) [DICLOFOP-METHYL] is ___
Solution: 40
